Heads up, these molecules all have IC50 values measured for xanthine oxidase (derived from butter milk) (Bos taurus, UniProt P80457).
The reply should contain only the number, in nM.

Query :: What value of IC50 has been recorded for this entry: `N#Cc1cc(-c2ccc(C(=O)O)s2)ccc1Oc1ccccc1`
Result :: 6.3

Query :: // lookup IC50 for `N#Cc1cc(-c2ccc(C(=O)O)s2)ccc1OCCn1cccc1`
Result :: 5.1

Query :: Value lookup for IC50; key = `N#Cc1cc(-c2ccc(C(=O)O)s2)ccc1OCc1ccccc1`
Result :: 2.5

Query :: Consider the molecule `N#Cc1cc(-c2ccc(C(=O)O)s2)ccc1OCc1cccnc1` and give its measured IC50.
Result :: 2.8

Query :: Name the reported IC50 value associated with the molecule `CC(C)COc1ccc(-c2cc(F)c(C(=O)O)s2)cc1C#N`
Result :: 2.2

Query :: What value of IC50 has been reported for the following molecule? `CC(C)COc1c(F)cc(-c2ccc(C(=O)O)s2)cc1C#N`
Result :: 1.5

Query :: Consider the molecule `N#Cc1cc(-c2cc(F)c(C(=O)O)s2)ccc1OC/C=C/c1ccccc1` and give its measured IC50.
Result :: 3.7
